- test_target: recombinantly expressed human PARP-1 enzyme (Homo sapiens)
- assay_name: PARP enzyme assay, Method B (tritium-labeled NAD incorporation)
- Assay type: biochemical
- experimental_conditions: Method B; 200 μM NAD, room temperature 1 hour, pH 8.0; read-out: IC50 (μM)/Method B
Counter-ions that a name gives are not always drawn.
measured_parameter: IC50 (µM)
Answers are plain numbers, in µM.

// worked examples, IC50 included
compound	measured_parameter	readout_unit	meas_value
CCc1cc(-c2cncc(C(=O)NCC3CC(c4ccncc4)=NO3)c2)c(C)[nH]c1=O (stereo not drawn) [Example 257]	IC50	µM	0.57
CCc1cc(-c2cncc(C(=O)NCc3nccs3)c2)c(C)[nH]c1=O [Example 250]	IC50	µM	0.64
CCc1cc(-c2ccc(CNC(C)=O)o2)c(C)[nH]c1=O [Example 274]	IC50	µM	0.83
CCc1cc(-c2ccc(S(=O)(=O)NCc3ccccn3)s2)c(C)[nH]c1=O [Example 31, hydrochloride]	IC50	µM	0.44
CCc1cc(-c2cccc(C(=O)N3CCCC3)n2)c(C)[nH]c1=O [Example 207]	IC50	µM	4.72

Batch of 4 compounds: report IC50 for each.
1. CCc1cc(-c2cncc(C(=O)Nc3ccccc3CC(N)=O)c2)c(C)[nH]c1=O [Example 251]
2. CCc1cc(-c2ccc(C(=O)N3CCCC3)cn2)c(C)[nH]c1=O [Example 211]
3. CCc1cc(-c2cncc(C(=O)Nc3cc(C(C)(C)C)[nH]n3)c2)c(C)[nH]c1=O [Example 258]
4. CCc1cc(-c2cncc(C(=O)N(C)CC(N)=O)c2)c(C)[nH]c1=O [Example 233]

[0.1, 8.6, 0.62, 1.65]

====

For each of the compounds below, state its log10 IC50.
- test_target: recombinant human PARP (PARP1) (Homo sapiens, UniProt P09874)
- Construct: Full length human PARP (PARP1) is assembled from PCR fragments; His6 tag with TEV site, from the pFastBac-HTb vector (own knowledge of the vector); made in house; host or cells: insect cells, baculovirus (Bac-to-Bac, Gibco-BRL)
- Sequence (P09874 whole entry, the tested form may be a part): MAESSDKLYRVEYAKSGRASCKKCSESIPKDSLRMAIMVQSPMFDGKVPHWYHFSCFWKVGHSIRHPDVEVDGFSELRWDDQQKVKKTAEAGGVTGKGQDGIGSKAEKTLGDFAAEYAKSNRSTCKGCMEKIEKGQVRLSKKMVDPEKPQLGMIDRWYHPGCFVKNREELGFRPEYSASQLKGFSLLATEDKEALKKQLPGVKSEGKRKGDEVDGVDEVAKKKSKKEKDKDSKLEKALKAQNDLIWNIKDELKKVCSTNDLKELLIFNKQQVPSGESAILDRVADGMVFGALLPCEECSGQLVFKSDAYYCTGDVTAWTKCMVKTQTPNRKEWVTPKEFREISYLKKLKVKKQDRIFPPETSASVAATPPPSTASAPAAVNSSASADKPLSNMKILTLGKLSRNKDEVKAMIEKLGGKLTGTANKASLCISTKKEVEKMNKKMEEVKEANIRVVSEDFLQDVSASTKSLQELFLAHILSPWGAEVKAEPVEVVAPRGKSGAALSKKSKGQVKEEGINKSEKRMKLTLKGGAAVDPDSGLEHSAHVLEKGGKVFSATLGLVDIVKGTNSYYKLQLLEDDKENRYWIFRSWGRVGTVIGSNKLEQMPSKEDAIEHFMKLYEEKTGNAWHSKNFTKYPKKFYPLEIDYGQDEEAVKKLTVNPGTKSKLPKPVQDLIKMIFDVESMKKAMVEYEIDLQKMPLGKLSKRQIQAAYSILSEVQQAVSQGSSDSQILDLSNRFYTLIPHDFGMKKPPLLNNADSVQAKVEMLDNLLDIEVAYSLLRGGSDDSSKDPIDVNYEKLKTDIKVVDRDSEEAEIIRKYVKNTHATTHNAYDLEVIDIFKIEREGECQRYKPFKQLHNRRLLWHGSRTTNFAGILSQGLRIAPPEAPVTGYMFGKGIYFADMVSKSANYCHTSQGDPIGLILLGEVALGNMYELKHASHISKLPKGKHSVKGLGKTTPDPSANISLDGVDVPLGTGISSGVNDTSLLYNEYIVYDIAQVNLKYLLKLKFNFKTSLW
- assay_name: PARP enzyme assay, Method A (radioactivity or 'ELISA' enzyme assay with partially purified enzyme)
- Assay type: biochemical
- experimental_conditions: recombinant human PARP preparation, radioactive or ELISA enzyme assay
Structures can show the parent of a compound that is named as a salt.
Heads up, the numbers here are log10 of IC50 in µM units.

# annotated cases, reported log10 IC50 shown
compound	log10 IC50
CCc1cc(-c2ccc(S(=O)(=O)NCc3ccc4c(c3)OCO4)s2)c(C)[nH]c1=O [Example 103]	-0.85
CCc1cc(-c2ccc(S(=O)(=O)N3CCC(C(=O)c4ccccc4)CC3)s2)c(C)[nH]c1=O [Example 108]	0.00
CCc1cc(-c2ccc(S(=O)(=O)N(C)Cc3cc(F)cc(F)c3)s2)c(C)[nH]c1=O [Example 29]	-0.24
CCc1cc(-c2ccc(S(=O)(=O)N3CCN(c4ccccn4)CC3)s2)c(C)[nH]c1=O [Example 116, hydrochloride]	-0.35
CCc1cc(-c2ccc(S(=O)(=O)NCCc3ccncc3)s2)c(C)[nH]c1=O [Example 109, hydrochloride]	-1.00

Could you report log10 IC50 for every entry in the following list?
1. CCc1cc(-c2ccc(CN3CCC(Cc4ccccc4)CC3)s2)c(C)[nH]c1=O [Example 183, hydrochloride]
2. CCc1cc(-c2ccc(S(=O)(=O)NCCOC)s2)c(C)[nH]c1=O [Example 33]

0.38
1.02

Fill in log10 IC50 for each of the 6 compounds listed.
1. CCc1cc(-c2ccc(S(=O)(=O)N3CCN(CCOCCO)CC3)s2)c(C)[nH]c1=O [Example 99, hydrochloride]
2. CCc1cc(-c2ccc(S(=O)(=O)NCc3ccc(N(C)C)nc3)s2)c(C)[nH]c1=O [Example 78, hydrochloride]
3. CCc1cc(-c2ccc(S(=O)(=O)NCC3CCCO3)s2)c(C)[nH]c1=O (stereo not shown) [Example 112]
4. CCc1cc(-c2ccc(S(=O)(=O)N3CCN(CCCN4CCCC4)CC3)s2)c(C)[nH]c1=O [Example 62, dihydrochloride]
5. CCc1cc(-c2ccc(CN3CCOCC3)c(C#N)c2)c(C)[nH]c1=O [Example 2]
6. CCc1cc(-c2nc(C)nn2C)c(C)[nH]c1=O [Example 20]

0.11
-0.70
0.08
-0.22
0.65
0.04

====

- test_target: recombinantly expressed human PARP-1 enzyme (Homo sapiens, UniProt P09874)
- Sequence (P09874 whole entry): as the sequence (P09874 whole entry, the tested form may be a part) above
- assay_name: PARP enzyme assay, Method B (tritium-labeled NAD incorporation)
- Assay type: biochemical
- experimental_conditions: Method B; 200 μM NAD, room temperature 1 hour, pH 8.0; read-out: IC50 (μM)/Method B
measured_parameter: IC50 (µM)
Numbers only, in µM.

Some entries whose results are on file:
cpd_smiles	test_target	readout_unit	meas_value
CCCCNC(=O)c1cncc(-c2cc(CC)c(=O)[nH]c2C)c1	recombinantly expressed human PARP-1 enzyme (Homo sapiens, UniProt P09874)	µM	0.92
CCc1cc(-c2cncc(C(=O)N[C@H]3CC=CC[C@H]3C(N)=O)c2)c(C)[nH]c1=O	recombinantly expressed human PARP-1 enzyme (Homo sapiens, UniProt P09874)	µM	0.8

Kindly review the next compound as well.
Give recorded IC50 with recombinantly expressed human PARP-1 enzyme (Homo sapiens, UniProt P09874) for the following compound: CCc1cc(-c2cncc(C(=O)NCc3ccc(S(N)(=O)=O)cc3)c2)c(C)[nH]c1=O
0.28

Origin of measurements: patent US8173682B2
